Hello, the source for this data is PubChem BioAssay AID1963841, in case you need it.

test system: 439559-082-T-J2-PDC spheroid viability; assay: Anticancer human tumor 439559-082-T-J2-PDC patient-derived colon adenocarcinoma cell line growth inhibition [POLQ]; conditions: second compound 10 µM; first compound 0.1 µM; stronger effect = lower value; spheroids with HUVEC and MSC
Record form. Attribute: viability, T/C. Fill in for each entry.

Query: Given the compound C#Cc1c(F)ccc2cc(O)cc(-c3ncc4c(N5CC6CCC(C5)N6)nc(OCC56CCCN5CC(F)C6)nc4c3F)c12 (stereo unspecified) + Nc1ccc(C#CCN(C(=O)Cc2ncc(C(F)(F)F)cc2C(F)(F)F)c2ccc(F)cc2)nn1 , what is its reported viability, T/C?
Reply: 76.9%

Query: Now consider CCc1cc2c(N3CCc4c(cc(Cn5ccnc5)cc4-c4cn(C)nc4C(F)(F)F)C3=O)ccnc2c(OC)n1 + COC1C(OC(N)=O)C(O)C(Oc2ccc3c(O)c(NC(=O)c4ccc(O)c(CC=C(C)C)c4)c(=O)oc3c2C)OC1(C)C and answer again.
Reply: 93.7%

Query: Now consider CNCc1ccc(-c2[nH]c3cc(F)cc4c3c2CCNC4=O)cc1 + Nc1ccc(C#CCN(C(=O)Cc2ncc(C(F)(F)F)cc2C(F)(F)F)c2ccc(F)cc2)nn1 and answer again.
Reply: 104%

Query: Now consider CC1COCCN1c1cc(C2(O)CC3CCC(C2)O3)c2cnn(-c3ccn[nH]3)c2n1 (stereo unspecified) + Cc1cccc(N(C)C(=O)C2C(O)CCN2c2nc(C)cc(C(F)(F)F)c2C#N)c1 and answer again.
Reply: 73.7%

Query: Now consider O=C(Nc1ccc(O)c(NS(=O)(=O)c2ccc(F)cc2)c1)c1ccc(-c2ccccc2)cc1 + Nc1ccc(C#CCN(C(=O)Cc2ncc(C(F)(F)F)cc2C(F)(F)F)c2ccc(F)cc2)nn1 and answer again.
Reply: 101%

Query: Now consider Cn1ncnc1[C@H]1c2n[nH]c(=O)c3cc(F)cc(c23)N[C@@H]1c1ccc(F)cc1 + COC1C(OC(N)=O)C(O)C(Oc2ccc3c(O)c(NC(=O)c4ccc(O)c(CC=C(C)C)c4)c(=O)oc3c2C)OC1(C)C and answer again.
Reply: 91%

Query: Now consider CC(C)n1c(=O)n(C)c2cnc3cc(F)c(-c4ccc(OCCCN5CCCCC5)nc4)cc3c21 + Nc1ccc(C#CCN(C(=O)Cc2ncc(C(F)(F)F)cc2C(F)(F)F)c2ccc(F)cc2)nn1 and answer again.
Reply: 102%

Query: Now consider CCc1c2c(nc3ccc(O)cc13)-c1cc3c(c(=O)n1C2)COC(=O)[C@]3(O)CC + Cc1cccc(N(C)C(=O)C2C(O)CCN2c2nc(C)cc(C(F)(F)F)c2C#N)c1 and answer again.
Reply: 68.4%

Query: Now consider COc1ccc([C@@H](O)c2cc(-c3ncnc4cc(N5CCOCC5)ccc34)c(F)cc2Cl)nn1 + Nc1ccc(C#CCN(C(=O)Cc2ncc(C(F)(F)F)cc2C(F)(F)F)c2ccc(F)cc2)nn1 and answer again.
Reply: 90%

Query: Now consider CCCS(=O)(=O)Nc1ccc(F)c(C(=O)c2c[nH]c3ncc(-c4ccc(Cl)cc4)cc23)c1F + Cc1cccc(N(C)C(=O)C2C(O)CCN2c2nc(C)cc(C(F)(F)F)c2C#N)c1 and answer again.
Reply: 96.3%

Query: Now consider COc1cc2cc(C(=O)CCC(=O)O)sc2cc1OC + Cc1cccc(N(C)C(=O)C2C(O)CCN2c2nc(C)cc(C(F)(F)F)c2C#N)c1 and answer again.
Reply: 107%

====

tested on: 439559-082-T-J2-PDC spheroid viability; experiment: Anticancer human tumor 439559-082-T-J2-PDC cell line growth inhibition [POLQ]; settings: second compound 0.0316 µM; first compound 3.16 µM; stronger effect = lower value; spheroids with HUVEC and MSC;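 further: spheroids exposed to compounds for seven days before readout; 100% = DMSO vehicle control viability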
Lab note - cut at 70% for viability, T/C: label 1 if strictly below, label 0 if not.

Query: Lab note: viability, T/C threshold 70%. Does this compound come in strictly under it? C=CC(=O)N1CCN(c2nc(=O)n(-c3c(C)ccnc3C(C)C)c3nc(-c4c(O)cccc4F)c(F)cc23)C(C)C1 (stereo not given) + Cc1cccc(N(C)C(=O)C2C(O)CCN2c2nc(C)cc(C(F)(F)F)c2C#N)c1
Reply: label 0

Query: Now consider C#Cc1c(F)ccc2cc(O)cc(-c3ncc4c(N5CC6CCC(C5)N6)nc(OCC56CCCN5CC(F)C6)nc4c3F)c12 (stereo not given) + COC1C(OC(N)=O)C(O)C(Oc2ccc3c(O)c(NC(=O)c4ccc(O)c(CC=C(C)C)c4)c(=O)oc3c2C)OC1(C)C and answer again.
Reply: label 1

Query: Now consider CC1COCCN1c1cc(C2(S(C)(=N)=O)CC2)nc(-c2ccnc3[nH]ccc23)n1 (stereo not given) + COC1C(OC(N)=O)C(O)C(Oc2ccc3c(O)c(NC(=O)c4ccc(O)c(CC=C(C)C)c4)c(=O)oc3c2C)OC1(C)C and answer again.
Reply: label 0

Query: Now consider COc1cccc2c1C(=O)c1c(O)c3c(c(O)c1C2=O)CC(O)(C(=O)CO)CC3OC1CC(N)C(O)C(C)O1 (stereo not given) + Cc1cccc(N(C)C(=O)C2C(O)CCN2c2nc(C)cc(C(F)(F)F)c2C#N)c1 and answer again.
Reply: label 1

====

tested on: 439559-082-T-J2-PDC spheroid viability; assay: Anticancer human tumor 439559-082-T-J2-PDC cell line growth inhibition [POLQ]; settings: second compound 1 µM; first compound 0.1 µM; stronger effect = lower value; spheroids with HUVEC and MSC;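 further: spheroids exposed to compounds for seven days before readout; 100% = DMSO vehicle control viability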
Record form. Attribute: viability, T/C. Fill in for each entry.
Value expressed in %; do not type the unit.

Query: Given the molecule Nc1ccn(C2OC(CO)C(O)C2(F)F)c(=O)n1 (stereo not drawn) + Cc1cccc(N(C)C(=O)C2C(O)CCN2c2nc(C)cc(C(F)(F)F)c2C#N)c1 , what is its reported viability, T/C?
Reply: 76.1

Query: Now consider CC1COCCN1c1cc(C2(O)CC3CCC(C2)O3)c2cnn(-c3ccn[nH]3)c2n1 (stereo not drawn) + Cc1cccc(N(C)C(=O)C2C(O)CCN2c2nc(C)cc(C(F)(F)F)c2C#N)c1 and answer again.
Reply: 78.4

Query: Now consider COc1cccc2c1C(=O)c1c(O)c3c(c(O)c1C2=O)CC(O)(C(=O)CO)CC3OC1CC(N)C(O)C(C)O1 (stereo not drawn) + COC1C(OC(N)=O)C(O)C(Oc2ccc3c(O)c(NC(=O)c4ccc(O)c(CC=C(C)C)c4)c(=O)oc3c2C)OC1(C)C and answer again.
Reply: 104

====

Record form. Attribute: viability, T/C. Fill in for each entry.
tested on: 439559-082-T-J2-PDC spheroid viability; experiment: Anticancer human tumor 439559-082-T-J2-PDC cell line growth inhibition [POLQ]; settings: second compound 0.0316 µM; first compound 1 µM; stronger effect = lower value; spheroids with HUVEC and MSC;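 further: spheroids exposed to compounds for seven days before readout; 100% = DMSO vehicle control viability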
Value expressed in %; do not type the unit.

Query: Find viability, T/C (439559-082-T-J2-PDC spheroid viability) for the entry CC1COCCN1c1cc(C2(O)CC3CCC(C2)O3)c2cnn(-c3ccn[nH]3)c2n1 (stereo unspecified) + Cc1cccc(N(C)C(=O)C2C(O)CCN2c2nc(C)cc(C(F)(F)F)c2C#N)c1
Reply: 60.9

Query: Now consider CCc1c2c(nc3ccc(O)cc13)-c1cc3c(c(=O)n1C2)COC(=O)[C@]3(O)CC + Nc1ccc(C#CCN(C(=O)Cc2ncc(C(F)(F)F)cc2C(F)(F)F)c2ccc(F)cc2)nn1 and answer again.
Reply: 52.8

Query: Now consider CC1COCCN1c1cc(-c2ccnn2C)c2ccnc(-c3ccn[nH]3)c2n1 (stereo unspecified) + Cc1cccc(N(C)C(=O)C2C(O)CCN2c2nc(C)cc(C(F)(F)F)c2C#N)c1 and answer again.
Reply: 49.7

Query: Now consider CCc1c2c(nc3ccc(O)cc13)-c1cc3c(c(=O)n1C2)COC(=O)[C@]3(O)CC + Cc1cccc(N(C)C(=O)C2C(O)CCN2c2nc(C)cc(C(F)(F)F)c2C#N)c1 and answer again.
Reply: 43.2

Query: Now consider CC1COCCN1c1cc(C2(O)CC3CCC(C2)O3)c2cnn(-c3ccn[nH]3)c2n1 (stereo unspecified) + Nc1ccc(C#CCN(C(=O)Cc2ncc(C(F)(F)F)cc2C(F)(F)F)c2ccc(F)cc2)nn1 and answer again.
Reply: 62.4

Query: Now consider C=CC(=O)N1CCN(c2nc(=O)n(-c3c(C)ccnc3C(C)C)c3nc(-c4c(O)cccc4F)c(F)cc23)C(C)C1 (stereo unspecified) + Nc1ccc(C#CCN(C(=O)Cc2ncc(C(F)(F)F)cc2C(F)(F)F)c2ccc(F)cc2)nn1 and answer again.
Reply: 94.5

Query: Now consider C#Cc1c(F)ccc2cc(O)cc(-c3ncc4c(N5CC6CCC(C5)N6)nc(OCC56CCCN5CC(F)C6)nc4c3F)c12 (stereo unspecified) + Cc1cccc(N(C)C(=O)C2C(O)CCN2c2nc(C)cc(C(F)(F)F)c2C#N)c1 and answer again.
Reply: 63.1

Query: Now consider COc1cc2cc(C(=O)CCC(=O)O)sc2cc1OC + Cc1cccc(N(C)C(=O)C2C(O)CCN2c2nc(C)cc(C(F)(F)F)c2C#N)c1 and answer again.
Reply: 101

Query: Now consider CCc1cc2c(N3CCc4c(cc(Cn5ccnc5)cc4-c4cn(C)nc4C(F)(F)F)C3=O)ccnc2c(OC)n1 + Cc1cccc(N(C)C(=O)C2C(O)CCN2c2nc(C)cc(C(F)(F)F)c2C#N)c1 and answer again.
Reply: 97.1

Query: Now consider C=CC(=O)N1CCN(c2nc(=O)n(-c3c(C)ccnc3C(C)C)c3nc(-c4c(O)cccc4F)c(F)cc23)C(C)C1 (stereo unspecified) + Cc1cccc(N(C)C(=O)C2C(O)CCN2c2nc(C)cc(C(F)(F)F)c2C#N)c1 and answer again.
Reply: 108

Query: Now consider CCc1cc2c(N3CCc4c(cc(Cn5ccnc5)cc4-c4cn(C)nc4C(F)(F)F)C3=O)ccnc2c(OC)n1 + COC1C(OC(N)=O)C(O)C(Oc2ccc3c(O)c(NC(=O)c4ccc(O)c(CC=C(C)C)c4)c(=O)oc3c2C)OC1(C)C and answer again.
Reply: 95.2

Query: Now consider C=CCn1c(=O)c2cnc(Nc3ccc(N4CCN(C)CC4)cc3)nc2n1-c1cccc(C(C)(C)O)n1 + Cc1cccc(N(C)C(=O)C2C(O)CCN2c2nc(C)cc(C(F)(F)F)c2C#N)c1 and answer again.
Reply: 78.9

Query: Now consider CC(C)n1c(=O)n(C)c2cnc3cc(F)c(-c4ccc(OCCCN5CCCCC5)nc4)cc3c21 + Nc1ccc(C#CCN(C(=O)Cc2ncc(C(F)(F)F)cc2C(F)(F)F)c2ccc(F)cc2)nn1 and answer again.
Reply: 105

Query: Now consider Nc1ccn(C2OC(CO)C(O)C2(F)F)c(=O)n1 (stereo unspecified) + Cc1cccc(N(C)C(=O)C2C(O)CCN2c2nc(C)cc(C(F)(F)F)c2C#N)c1 and answer again.
Reply: 49.9

Query: Now consider CC1COCCN1c1cc(-c2ccnn2C)c2ccnc(-c3ccn[nH]3)c2n1 (stereo unspecified) + Nc1ccc(C#CCN(C(=O)Cc2ncc(C(F)(F)F)cc2C(F)(F)F)c2ccc(F)cc2)nn1 and answer again.
Reply: 41.2

Query: Now consider CC1COCCN1c1cc(C2(O)CC3CCC(C2)O3)c2cnn(-c3ccn[nH]3)c2n1 (stereo unspecified) + COC1C(OC(N)=O)C(O)C(Oc2ccc3c(O)c(NC(=O)c4ccc(O)c(CC=C(C)C)c4)c(=O)oc3c2C)OC1(C)C and answer again.
Reply: 58.4

Query: Now consider O=C(Nc1ccc(O)c(NS(=O)(=O)c2ccc(F)cc2)c1)c1ccc(-c2ccccc2)cc1 + COC1C(OC(N)=O)C(O)C(Oc2ccc3c(O)c(NC(=O)c4ccc(O)c(CC=C(C)C)c4)c(=O)oc3c2C)OC1(C)C and answer again.
Reply: 97.9

Query: Now consider CCc1cc2c(N3CCc4c(cc(Cn5ccnc5)cc4-c4cn(C)nc4C(F)(F)F)C3=O)cc(C)nc2c(OC)n1 + Nc1ccc(C#CCN(C(=O)Cc2ncc(C(F)(F)F)cc2C(F)(F)F)c2ccc(F)cc2)nn1 and answer again.
Reply: 93.2

Query: Now consider COc1cc2cc(C(=O)CCC(=O)O)sc2cc1OC + COC1C(OC(N)=O)C(O)C(Oc2ccc3c(O)c(NC(=O)c4ccc(O)c(CC=C(C)C)c4)c(=O)oc3c2C)OC1(C)C and answer again.
Reply: 92.3

Query: Now consider O=c1[nH]cc(F)c(=O)[nH]1 + Nc1ccc(C#CCN(C(=O)Cc2ncc(C(F)(F)F)cc2C(F)(F)F)c2ccc(F)cc2)nn1 and answer again.
Reply: 98

Query: Now consider CC1COCCN1c1cc(-c2ccnn2C)c2ccnc(-c3ccn[nH]3)c2n1 (stereo unspecified) + COC1C(OC(N)=O)C(O)C(Oc2ccc3c(O)c(NC(=O)c4ccc(O)c(CC=C(C)C)c4)c(=O)oc3c2C)OC1(C)C and answer again.
Reply: 42
